All values here come from patent US20210079087A1.

Measured IC50 (nM), IL6 production by TNFα-primed NIH3T3 cells stimulated with human IL-17A of individual entries
Molecular target: human IL-17A (human, UniProt Q16552 24-155)
Sequence (Q16552 24-155 limits assumed): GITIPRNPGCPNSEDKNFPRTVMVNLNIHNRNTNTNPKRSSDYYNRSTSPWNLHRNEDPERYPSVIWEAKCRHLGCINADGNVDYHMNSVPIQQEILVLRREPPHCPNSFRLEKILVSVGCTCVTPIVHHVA
Experiment: cell-based or functional assay
Please respond with the number in nM and leave the unit unwritten.

{"BINDER": "8A5G4 (antibody, V domains shown, amino acids 1-19 are stated as the leader; also called A2) VH: QVELKESGPGLVAPSQSLSITCTVSGFSLTSYGVYWVRQPPGKGLEWLVVIWSDGTTTYNSALKSRLSISKDNSKSQVFLKMNSLQTDDTAMYYCARQGDNYSYAVDYWGQGTAVTVSS VL: DVVMIQIPLSLPVSLGDQASISCRSSQSLVHSNGNTYLHWYLQKPGQSPKLLIYKVFNRFSGVPDRFSGSGSGTDFTLKISRVEAEDLGVYFCSQSTHAPLTFGAGTKLELK", "MEASUREMENT UNITS": "nM", "NUMBER": 0.47}
{"BINDER": "23A4D8 (antibody, mouse IgG2a, V domains shown, also called Murine 23A4D8; parental) VH: EVQLQQSGPELVKPGASVKISCKASGFTFTDYYMNWMKQSHGKSLEWIGDINPKNGGTIFNQNFRGKATLTVDKSSSTAYMELRSLTSEDSAVYYCARSILTGPFYFDYWGQGTTLTVSS VL: DIVLTQSPASLAVSLGQRAIISCKASQSVSFAGTGLMHWYQQKSGQQPKLLISRASNLEAGVPTRFSGSGSRTDFTLNIHPVEEDDAATYYCQQTMEYPTFGGGTKLEIK", "MEASUREMENT UNITS": "nM", "NUMBER": 0.581}

Which measured IC50 (nM), IL6 production by TNFα-primed NIH3T3 cells stimulated with human IL-17A value corresponds to 4H11C7 (antibody, mouse IgG1, V domains shown, amino acids 1-19 are stated as the leader; also called A1) VH: QVTLKESGPGILQPSQTLSLTCSFSGFSLNTFGMGVDWIRQPSGKGLEWLAHIWWDDDKYYNPALESRLTISKDASKNQVFLKIANVDTADTATYYCSRRELGPYFFDYWGQGTTLTVSS VL: GVLMTQTPLSLPVSLGDQASISCRSSQSIVHSNGNTYLEWYLQKPGQSPKLLIYKVSNRFSGVPDRFSGSGSGTDFTLKINRVEAEDLGVYYCFQGSHFPYTFGGGTKLEID ? 0.953
